meta.source: patent US20200407370A1

# PROTOCOL TEXT: Liver microsomal stability in human
# Format: in vitro ADME
# PARTICULARS: human liver microsomes, 0.5 mg protein/mL, 1 μM compound, 37° C.
OBSERVATION TYPE: half-life at 1 μM

[in] Request the reported half-life at 1 μM associated with CCn1c(-c2nc3cc(C(=O)N4CCC[C@@H](N)C4)cc(OC)c3n2C)cc2cccnc21 [Compound GSK199, reference compound]
[out] 4.45 h

[in] Request the reported half-life at 1 μM associated with `CCn1c(-c2nc3cc(C(=O)N4CCC[C@@H](N)C4)cc(OC)c3n2C)cc2ccsc21`
[out] 4.62 h

[in] Request the reported half-life at 1 μM associated with `CCn1c(-c2nc3cc(C(=O)N4CCC[C@@H](N)C4)cc(OC)c3n2C)cc2ccoc21`
[out] 11.6 h

[in] Request the reported half-life at 1 μM associated with `COc1cc(C(=O)N2CCC[C@@H](N)C2)cc2nc(-c3cc4ccsc4n3CC3CC3)n(C)c12`
[out] 3.5 h
